Recorded values, source patent US20230000842A1.

Each entry below carries its recorded EC50.
# measurement-target: CLK2 kinase (Homo sapiens, UniProt P49760)
# Sequence (P49760 whole entry): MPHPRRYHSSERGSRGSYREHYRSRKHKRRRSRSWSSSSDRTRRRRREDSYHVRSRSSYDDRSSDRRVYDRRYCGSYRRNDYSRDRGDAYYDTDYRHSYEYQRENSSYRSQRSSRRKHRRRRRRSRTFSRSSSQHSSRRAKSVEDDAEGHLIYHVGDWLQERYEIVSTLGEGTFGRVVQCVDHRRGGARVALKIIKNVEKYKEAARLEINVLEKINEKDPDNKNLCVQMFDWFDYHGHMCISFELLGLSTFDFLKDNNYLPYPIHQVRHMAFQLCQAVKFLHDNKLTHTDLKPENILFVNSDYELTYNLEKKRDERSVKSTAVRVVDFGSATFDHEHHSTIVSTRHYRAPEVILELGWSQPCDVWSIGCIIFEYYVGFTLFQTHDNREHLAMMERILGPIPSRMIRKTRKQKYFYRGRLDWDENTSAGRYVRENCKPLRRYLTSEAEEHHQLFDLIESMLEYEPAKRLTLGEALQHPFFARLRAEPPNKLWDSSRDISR
# assay: CLK2 kinase activity assay (Z-lyte FRET);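 note: FRET read-out as coumarin to fluorescein emission ratio, unphosphorylated peptide as 0% and phosphorylated peptide as 100% controls, duplicate reactions, non-linear regression fit of dose-response curves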
# measurement-context: Z-lyte Ser/Thr 6 peptide, 60 μM ATP, 1 h at room temperature
Dear colleague, please return just the value in nM, with no unit written.

Example compounds with recorded EC50:
NC1CN(c2cncc(-c3ccc4[nH]nc(-c5nc6ccncc6[nH]5)c4c3)c2)C1 [compound 205]    1
O=C(Nc1cncc(-c2ccc3[nH]nc(-c4nc5c(-c6ccc(F)cc6)cncc5[nH]4)c3c2)c1)C1CCC1 [compound 164]    28
O=C(Nc1ccc(CN2CCCC2)cc1)c1n[nH]c2ccc(-c3cnccn3)cc12 [compound 104]    2
CN(C)Cc1cncc(-c2cnc3[nH]nc(-c4nc5c(-c6ccsc6)cncc5[nH]4)c3c2)c1 [compound 252]    2
c1csc(-c2nccc3[nH]c(-c4n[nH]c5cnc(-c6cncc(CN7CCCCC7)c6)cc45)cc23)c1 [compound 509]    6

(Q) Name the recorded EC50 for O=C(Nc1cnccc1NC(=O)C1CC1)c1n[nH]c2ccc(-c3cncc(CN4CCCCC4)c3)cc12 [compound 86] .
(A) 3

---

# measurement-target: CLK2 kinase (Homo sapiens)
# assay: CLK2 kinase activity assay (Z-lyte FRET)
# measurement-context: Z-lyte Ser/Thr 6 peptide, 60 μM ATP, 1 h at room temperature
Measured EC50 of individual entries

Worked examples follow.
CC(C)C(=O)Nc1cncc(-c2cnc3[nH]nc(-c4cc5c(N6CCN(C)CC6)nccc5[nH]4)c3c2)c1 [compound 476]    7 nM
FC1(F)CCN(Cc2cncc(-c3ccc4[nH]nc(-c5cc6c(-c7cccnc7)cncc6[nH]5)c4n3)c2)C1 [compound 371]    11 nM

Here is the next item to consider.
(Q) Value lookup for EC50; key = O=C(Nc1ccc(CN2CCCC2)cc1)c1n[nH]cc1/C=C/c1cccnc1 [compound 17]
(A) 17 nM

---

# measurement-target: CLK3 kinase (Homo sapiens)
# assay: CLK3 kinase activity assay (Z-lyte FRET)
# Format: biochemical
# measurement-context: Z-lyte Ser/Thr 18 peptide, 156 μM ATP, 1 h at room temperature
reported-property: pEC50
Quick note: pEC50 means taking -log10 of the concentration in moles per liter.

O=C(Nc1cncc(-c2cc3c(-c4cc5cnccc5[nH]4)n[nH]c3cn2)c1)c1ccccc1 [compound 437]    7.21
CN(C)CCNc1cc(F)cc(-c2cccc3[nH]c(-c4n[nH]c5ccc(-c6cncnc6)nc45)cc23)c1 [compound 516]    7.20
CCCC(=O)Nc1cncc(-c2cnc3[nH]nc(-c4nc5c(-c6ccccc6F)cncc5[nH]4)c3c2)c1 [compound 172]    6.93

Consider now this further compound.
(Q) Entry CC1CCN(Cc2cncc(-c3ccc4[nH]nc(C(=O)Nc5cccnc5)c4c3)c2)CC1 [compound 98] : reported pEC50 = ?
(A) 7.07

---

# measurement-target: CLK3 kinase (Homo sapiens, UniProt P49761)
# Sequence (P49761 whole entry): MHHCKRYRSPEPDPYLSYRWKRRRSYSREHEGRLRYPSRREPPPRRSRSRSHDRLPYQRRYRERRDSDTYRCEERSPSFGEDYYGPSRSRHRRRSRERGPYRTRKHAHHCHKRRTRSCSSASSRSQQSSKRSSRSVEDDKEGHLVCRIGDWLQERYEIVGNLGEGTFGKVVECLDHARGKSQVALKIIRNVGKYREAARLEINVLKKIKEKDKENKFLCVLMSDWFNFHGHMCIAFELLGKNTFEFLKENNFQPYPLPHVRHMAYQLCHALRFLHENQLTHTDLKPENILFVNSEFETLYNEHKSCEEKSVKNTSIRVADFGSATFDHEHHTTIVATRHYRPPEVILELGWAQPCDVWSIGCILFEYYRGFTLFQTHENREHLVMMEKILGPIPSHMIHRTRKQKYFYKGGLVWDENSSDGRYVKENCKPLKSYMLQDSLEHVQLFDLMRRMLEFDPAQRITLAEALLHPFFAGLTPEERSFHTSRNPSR
# assay: CLK3 kinase activity assay (Z-lyte FRET);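 note: kinase activity read as coumarin/fluorescein emission ratio by FRET, unphosphorylated peptide as 0% and phosphorylated peptide as 100% control, values from non-linear regression of dose-response curves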
# Format: biochemical
# measurement-context: Z-lyte Ser/Thr 18 peptide, 156 μM ATP, 1 h at room temperature
reported-property: EC50 (µM)
State just the number; it will be interpreted in µM.

CC(C)C(=O)Nc1cncc(-c2cc3c(-c4cc5c(-c6ccncc6)nccc5[nH]4)n[nH]c3cn2)c1    0.389

(Q) Return reported EC50; argument: `CN1CCN(c2cncc3[nH]c(-c4n[nH]c5ccc(-c6cncc(N)c6)nc45)nc23)CC1`
(A) 0.5

(Q) Then `c1cncc(-c2ccc3[nH]nc(-c4cc5cccnc5[nH]4)c3n2)c1` ?
(A) 1.36

(Q) // next record `CCNCc1cncc(-c2ccc3[nH]nc(-c4cc5c(-c6cccnc6)ccnc5[nH]4)c3c2)c1`
(A) 0.443

(Q) One more compound: `CC(C)(C)C(=O)Nc1cncc(-c2cnc3[nH]nc(-c4nc5c(-c6ccoc6)cncc5[nH]4)c3c2)c1`
(A) 0.143

(Q) Also `Cc1cn(-c2nccc3[nH]c(-c4n[nH]c5ccc(-c6cncc(NC(=O)CC(C)C)c6)nc45)nc23)cn1` ?
(A) 0.116

(Q) Quick one: `CC(C)Nc1cncc(-c2ccc3[nH]nc(-c4nc5c(-c6ccccc6F)cncc5[nH]4)c3c2)c1`
(A) 0.209

(Q) Now the compound `c1cc2cc(-c3n[nH]c4ccc(-c5cncc(OCCN6CCCC6)c5)cc34)[nH]c2cn1`
(A) 0.068

(Q) Let us now turn to `O=C(Nc1ccnnc1)c1n[nH]c2ccc(-c3cncc(CN4CCCCC4)c3)cc12`
(A) 0.011

(Q) Check `CCC(=O)Nc1cncc(-c2cnc3[nH]nc(-c4cc5cnccc5[nH]4)c3c2)c1` too.
(A) 0.041

(Q) Please answer likewise for `CS(=O)(=O)NCc1cc(F)cc(-c2nccc3[nH]c(-c4n[nH]c5ccc(-c6cncnc6)cc45)nc23)c1`
(A) 0.186

(Q) Next: `O=C(Nc1cc2cc(-c3cncc(NCC4(F)CNC4)n3)ccc2cn1)C1CC1`
(A) 0.018

(Q) Try this compound next: `Nc1cncc(-c2cnc3[nH]nc(-c4cc5c(-c6ccncc6)nccc5[nH]4)c3c2)c1`
(A) 0.05

(Q) Then this compound: `CC(C)C(=O)Nc1cncc(-c2cc3c(-c4cc5cnccc5[nH]4)n[nH]c3cn2)c1`
(A) 0.016
